Catalogue of compounds with associated %max
Species on record: Rattus norvegicus
procedureSummary: Displacement of [3H]-PN200-110 from L-type calcium channel dihydropyridine binding site in Wistar rat cortex homogenate at 100 uM after 60 mins by liquid scintillation spectometric analysis relative to control
Format: tissue-based

# compound, %max [%]
data = [
    ("COC(=O)C1=C(C)NC(C)=C(C(=O)OC)C1c1c(Cl)nc2sc(C)cn12", 60),
    ("COC(=O)C1=C(C)NC(C)=C(C(=O)OC)C1c1c(-c2cccnc2)nc2sc(C)cn12", 70),
    ("COC(=O)C1=C(C)NC(C)=C(C(=O)OC)C1c1c(Cl)nc2scc(C)n12", 52),
    ("COC(=O)C1=C(C)NC(C)=C(C(=O)OC)C1c1ccccc1[N+](=O)[O-] [NIFEDIPINE]", 92),
    ("COC(=O)C1=C(C)NC(C)=C(C(=O)OC)C1c1c(-c2ccc(OC)c(OC)c2)nc2sccn12", 77),
    ("COC(=O)C1=C(C)NC(C)=C(C(=O)OC)C1c1c(-c2cc(OC)ccc2OC)nc2sccn12", 56),
    ("COC(=O)C1=C(C)NC(C)=C(C(=O)OC)C1c1c(-c2cc(OC)cc(OC)c2)nc2sccn12", 79),
    ("COC(=O)C1=C(C)NC(C)=C(C(=O)OC)C1c1c(C(F)(F)F)nc2sccn12", 75),
    ("COC(=O)C1=C(C)NC(C)=C(C(=O)OC)C1c1c(-c2cccc(OC)c2)nc2sccn12", 90),
]

----------
List of pIC50 values.
procedureSummary: Displacement of [3H]-PN200-110 from L-type calcium channel dihydropyridine binding site in Wistar rat cortex homogenate after 60 mins by liquid scintillation spectometric analysis
Type: tissue-based
pIC50: −log10 of the molar value.

# substanceSmiles, pIC50
records = [
    ("COC(=O)C1=C(C)NC(C)=C(C(=O)OC)C1c1c(-c2cccc(OC)c2)nc2sccn12", 6.00),
    ("COC(=O)C1=C(C)NC(C)=C(C(=O)OC)C1c1c(Cl)nc2scc(C)n12", 3.97),
    ("COC(=O)C1=C(C)NC(C)=C(C(=O)OC)C1c1c(Cl)nc2sc(C)cn12", 2.99),
]

----------
procedureSummary: Displacement of [3H]-PN200-110 from L-type calcium channel in Hartley guinea pig ventricular membrane […] after 90 mins
Parameters: species or system Cavia porcellus
Quick reference: Ki of the listed items.
observable: Ki (nM)

# substanceSmiles, valueObserved
records = [
    ("CCOC(=O)C1=C(C)NC(C)=C(C(=O)OCC)C1c1c(-c2cc(OC)ccc2OC)nc2sccn12", 510),
    ("CCCc1cn2c(C3C(C(=O)OC)=C(C)NC(C)=C3C(=O)OC)c(-c3c(OC)ccc(OC)c3[N+](=O)[O-])nc2s1", 1160),
    ("COC(=O)C1=C(C)NC(C)=C(C(=O)OC)C1c1c(-c2cccc(OC)c2)nc2sccn12", 160),
    ("COC(=O)C1=C(C)NC(C)=C(C(=O)OC)C1c1c(-c2ccc(OC)c(OC)c2)nc2sccn12", 16),
]

----------
procedureSummary: Negative inotropic activity in guinea pig left atrium assessed as decrease in developed tension
Assay type: functional, tissue-based
experimentalParameters: Cavia porcellus, Cardiac atrium
Mark fulfilled for EC50 under 300 nM, not fulfilled if at or over.

# compound, classification
data = [
    ("COC(=O)C1=C(C)NC(C)=C(C(=O)OC)C1c1c(-c2c(Cl)csc2Cl)nc2sc(C)cn12", "not fulfilled"),
    ("CCOC(=O)C1=C(C)NC(C)=C(C(=O)OCC)C1c1c(-c2cc(OC)ccc2OC)nc2sccn12", "not fulfilled"),
    ("COC(=O)C1=C(C)NC(C)=C(C(=O)OC)C1c1c(-c2ccccn2)nc2sccn12", "not fulfilled"),
    ("COC(=O)C1=C(C)NC(C)=C(C(=O)OC)C1c1c(-c2c(Cl)csc2Cl)nc2sccn12", "fulfilled"),
    ("COC(=O)C1=C(C)NC(C)=C(C(=O)OC)C1c1ccccc1[N+](=O)[O-] [NIFEDIPINE]", "fulfilled"),
]

----------
procedureSummary: Displacement of [3H]-PN200-110 from L-type calcium channel in Hartley guinea pig ventricular membrane […] after 90 mins
Design: species or system Cavia porcellus
observable: Ki (nM)

# compound, valueUnit, valueObserved
rows = [
    ("COC(=O)C1=C(C)NC(C)=C(C(=O)OC)C1c1c(-c2cc(OC)cc(OC)c2)nc2sccn12", "nM", 310),
    ("COC(=O)C1=C(C)NC(C)=C(C(=O)OC)C1c1ccccc1[N+](=O)[O-] [NIFEDIPINE]", "nM", 2),
    ("COC(=O)C1=C(C)NC(C)=C(C(=O)OC)C1c1c(-c2ccsc2)nc2sccn12", "nM", 740),
]

----------
Organism: Cavia porcellus
procedureSummary: Displacement of [3H]-PN200-110 from L-type calcium channel in Hartley guinea pig ventricular membrane […] after 90 mins relative to control
Listed here are molecules together with their documented %max.

# molecule, resultComparator, %max (%)
rows = [
    ("CCCc1cn2c(C3C(C(=O)OC)=C(C)NC(C)=C3C(=O)OC)c(-c3c(OC)ccc(OC)c3[N+](=O)[O-])nc2s1", "=", 50),
    ("COC(=O)C1=C(C)NC(C)=C(C(=O)OC)C1c1c(Cl)nc2sc(C)cn12", "<", 50),
    ("COC(=O)C1=C(C)NC(C)=C(C(=O)OC)C1c1ccccc1[N+](=O)[O-] [NIFEDIPINE]", "=", 80),
]

----------
This listing pairs molecules with measured %max.
Species: Cavia porcellus
procedureSummary: Displacement of [3H]-PN200-110 from L-type calcium channel in Hartley guinea pig atrial membrane at 100 uM after 90 mins relative to control
Assay type: cell membranes
experimentalParameters: Cardiac atrium

# substanceSmiles, valueUnit, resultComparator, %max
records = [
    ("COC(=O)C1=C(C)NC(C)=C(C(=O)OC)C1c1c(-c2ccccc2C(F)(F)F)nc2sccn12", "%", "=", 91),
    ("CCOC(=O)C1=C(C)NC(C)=C(C(=O)OCC)C1c1c(-c2cc(OC)ccc2OC)nc2sccn12", "%", "=", 76),
    ("COC(=O)C1=C(C)NC(C)=C(C(=O)OC)C1c1c(-c2cccnc2)nc2sc(C)cn12", "%", "=", 52),
    ("CCCc1cn2c(C3C(C(=O)OC)=C(C)NC(C)=C3C(=O)OC)c(-c3c(OC)ccc(OC)c3[N+](=O)[O-])nc2s1", "%", "=", 53),
    ("COC(=O)C1=C(C)NC(C)=C(C(=O)OC)C1c1c(-c2cc(OC)ccc2OC)nc2sccn12", "%", "=", 65),
    ("COC(=O)C1=C(C)NC(C)=C(C(=O)OC)C1c1c(-c2cccs2)nc2sccn12", "%", "<", 50),
    ("COC(=O)C1=C(C)NC(C)=C(C(=O)OC)C1c1ccccc1[N+](=O)[O-]", "%", "=", 72),
    ("COC(=O)C1=C(C)NC(C)=C(C(=O)OC)C1c1c(-c2ccc(OC)c(OC)c2)nc2sccn12", "%", "=", 50),
]

----------
procedureSummary: Displacement of [3H]-PN200-110 from L-type calcium channel in Hartley guinea pig atrial membrane after 90 mins
Assay type: cell membranes, Cavia porcellus, Cardiac atrium
pKi: −log10 of the molar value.

# substanceSmiles, pKi
rows = [
    ("COC(=O)C1=C(C)NC(C)=C(C(=O)OC)C1c1c(-c2ccsc2)nc2sccn12", 7.28),
    ("CCOC(=O)C1=C(C)NC(C)=C(C(=O)OCC)C1c1c(-c2cc(OC)ccc2OC)nc2sccn12", 7.77),
    ("COC(=O)C1=C(C)NC(C)=C(C(=O)OC)C1c1c(-c2cccc(OC)c2)nc2sccn12", 7.05),
    ("COC(=O)C1=C(C)NC(C)=C(C(=O)OC)C1c1ccccc1[N+](=O)[O-]", 8.82),
    ("CCCc1cn2c(C3C(C(=O)OC)=C(C)NC(C)=C3C(=O)OC)c(-c3c(OC)ccc(OC)c3[N+](=O)[O-])nc2s1", 7.64),
    ("COC(=O)C1=C(C)NC(C)=C(C(=O)OC)C1c1c(-c2cccnc2)nc2sc(C)cn12", 8.32),
    ("COC(=O)C1=C(C)NC(C)=C(C(=O)OC)C1c1c(-c2cc(OC)cc(OC)c2)nc2sccn12", 7.05),
    ("COC(=O)C1=C(C)NC(C)=C(C(=O)OC)C1c1c(-c2cc(OC)ccc2OC)nc2sccn12", 7.36),
    ("COC(=O)C1=C(C)NC(C)=C(C(=O)OC)C1c1c(Cl)nc2sc(C)cn12", 7.38),
    ("COC(=O)C1=C(C)NC(C)=C(C(=O)OC)C1c1c(-c2ccccc2C(F)(F)F)nc2sccn12", 7.31),
    ("COC(=O)C1=C(C)NC(C)=C(C(=O)OC)C1c1c(-c2ccc(OC)c(OC)c2)nc2sccn12", 6.85),
]
